# target-of-assay: Heat shock factor protein 1 (Mus musculus, UniProt P38532)
# Sequence (P38532 whole entry): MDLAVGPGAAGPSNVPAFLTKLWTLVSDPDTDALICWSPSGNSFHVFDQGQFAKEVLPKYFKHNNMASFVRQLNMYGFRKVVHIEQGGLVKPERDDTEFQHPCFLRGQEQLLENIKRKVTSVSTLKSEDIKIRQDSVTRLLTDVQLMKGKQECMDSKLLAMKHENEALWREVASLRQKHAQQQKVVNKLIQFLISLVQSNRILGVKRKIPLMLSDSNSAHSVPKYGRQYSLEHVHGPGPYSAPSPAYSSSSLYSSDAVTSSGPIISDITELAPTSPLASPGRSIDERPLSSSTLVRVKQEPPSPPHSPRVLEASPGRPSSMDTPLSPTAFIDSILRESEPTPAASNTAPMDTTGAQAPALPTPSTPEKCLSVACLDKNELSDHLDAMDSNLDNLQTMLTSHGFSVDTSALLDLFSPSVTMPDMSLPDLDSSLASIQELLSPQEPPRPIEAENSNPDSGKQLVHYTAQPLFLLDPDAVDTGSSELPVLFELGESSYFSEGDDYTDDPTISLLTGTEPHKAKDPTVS
# measurement-notes: HSF1 potentiators in luciferase reporter cells, confirmation, cell-based, NIH3T3, luminescence, dose retest (AID 435004);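 further: stress induced by proteasome inhibitor MG132 added 30 min after compound; luciferase reporter driven by HSF1 response element in NIH3T3 cells; actives raise luminescence as potentiators of the MG132 stress response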
# Format: functional
Calls of active or inactive are those of the source. No stated cut-off is given here; in the data, actives have a measured EC50 and inactives only a lower limit.
// one of yes (1) = active, no (0) = inactive, no free text

Worked examples follow.
- CCOC(=O)C1=C(c2ccccc2)NC(=O)NC1c1cc(Br)c(O)c(OC)c1 (stereo not drawn): no (0)
- Cc1ccc2oc(C(=O)N3CCC(O)(c4cccc(C(F)(F)F)c4)CC3)c(C)c2c1: yes (1)
- Cc1[nH][nH]c(=O)c1C(c1c(C)[nH][nH]c1=O)c1cn(Cc2ccc(Cl)c(Cl)c2)c2ccccc12: yes (1)
- COC(=O)c1c(NC(=O)c2ccc([N+](=O)[O-])o2)sc2c1CCN(C(C)C)C2: yes (1)
- Cc1ccc(/C=N/NC(=O)c2cccc(S(=O)(=O)Nc3ccccc3Cl)c2)o1: no (0)
- O=C1C=C(Nc2ccccc2)C(=O)c2ccccc21: yes (1)
- CCOC(=O)/C(C#N)=C/c1cn(CCC(=O)O)nc1-c1ccc(Cl)cc1: no (0)
- CCC(Sc1nc2nnc(C)c-2c(N)n1-c1ccc(C)c(Cl)c1)C(=O)N1CCOCC1 (stereo not drawn): no (0)
- COc1ccc(/C=C(\NC(=O)c2ccccc2)C(=O)N/N=C/c2sccc2C)cc1: no (0)
- COc1ccc(C)cc1-n1c(=O)c2ccccc2c2ccccc2c1=O: yes (1)

Status in this test for `Cc1c(NC(=O)CSc2nnc3c4ccccc4n(CCc4ccccc4)c3n2)c(=O)n(-c2ccccc2)n1C` ? yes (1)

Status in this test for `CSc1ccc(CCNC(=O)c2nn(C)c3c2CS(=O)(=O)c2ccccc2-3)cc1` ? no (0)

Status in this test for `O=C(O)CC12C[C@H]3C[C@@H](C1)CC(n1ncc(N4CCN(c5ccccc5)CC4)c(Cl)c1=O)(C3)C2` ? no (0)
